meta.source: ChEMBL document CHEMBL1147669

# test system: UniProt:P05067
# assay remarks: Displacement of [125I](E,E)-1-iodo-2,5-bis-(3-hydroxycarbonyl-4-methoxy)styrylbenzene from beta amyloid peptide in brain tissue at 50 uL
# Type: tissue-based
pKi: −log10 of the molar value.
property name: pKi

Check out these entries, answers already filled in.
Nc1ccc(/C=C/C=C/C=C/c2ccc(NCCF)cc2)cc1 : 6.66
CNc1ccc(/C=C/C=C/C=C/c2ccc(NC)cc2)cc1 : 6.91

(a) Oc1ccc(/C=C/C=C/C=C/c2ccc(O)cc2)cc1
(b) COc1ccc(/C=C/c2ccc(/C=C/c3ccc(OC)c(C(=O)O)c3)c(I)c2)cc1C(=O)O
(c) Nc1ccc(/C=C/C=C/C=C/c2ccc(N)cc2)cc1
q: Highest pKi first, then in falling order down to the smallest. # output: labels, in the requested order
a: b, a, c

----------
# test system: Amyloid-beta precursor protein (Homo sapiens, UniProt P05067)
# Sequence (P05067 whole entry): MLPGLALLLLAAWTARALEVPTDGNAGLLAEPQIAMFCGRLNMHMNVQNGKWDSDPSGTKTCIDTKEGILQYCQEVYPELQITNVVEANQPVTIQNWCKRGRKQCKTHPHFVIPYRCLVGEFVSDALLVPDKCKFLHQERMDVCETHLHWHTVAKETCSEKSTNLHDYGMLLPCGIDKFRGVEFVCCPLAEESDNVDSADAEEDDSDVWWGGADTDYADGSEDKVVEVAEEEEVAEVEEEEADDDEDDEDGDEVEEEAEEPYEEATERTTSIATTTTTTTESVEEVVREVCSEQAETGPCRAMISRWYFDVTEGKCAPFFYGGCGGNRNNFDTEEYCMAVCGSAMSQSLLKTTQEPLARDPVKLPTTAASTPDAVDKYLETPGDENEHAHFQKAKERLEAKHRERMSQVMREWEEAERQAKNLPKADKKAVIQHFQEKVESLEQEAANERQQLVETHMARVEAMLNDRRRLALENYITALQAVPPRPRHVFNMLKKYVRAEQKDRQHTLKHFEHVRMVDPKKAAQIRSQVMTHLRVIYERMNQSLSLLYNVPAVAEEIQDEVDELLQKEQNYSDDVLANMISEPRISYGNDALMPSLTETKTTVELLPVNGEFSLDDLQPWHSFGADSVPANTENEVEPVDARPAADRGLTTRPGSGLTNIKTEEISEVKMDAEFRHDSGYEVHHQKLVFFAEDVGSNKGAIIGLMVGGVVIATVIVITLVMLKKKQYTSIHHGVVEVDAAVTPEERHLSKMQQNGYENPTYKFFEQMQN
# assay remarks: Displacement of [125I](E,E)-1-iodo-2,5-bis-(3-hydroxycarbonyl-4-methoxy)styrylbenzene from beta amyloid peptide in brain tissue at 50 uL
# Format: tissue-based
The reader will find reported Ki values listed item by item below.

Take a look at these entries with their results.
CC(=C(C#N)C#N)c1ccc2cc(N(C)CCF)ccc2c1 : > 8 µM
CN(C)c1ccc(/C=C/C=C/C=C/c2ccc(N(C)C)cc2)cc1 : > 7 µM
COc1ccc(/C=C/C=C/C=C/c2ccc(OC)cc2)cc1 : > 8 µM

Then this compound:
Record summary for `O=[N+]([O-])c1ccc(/C=C/C=C/C=C/c2ccc([N+](=O)[O-])cc2)cc1` : reported Ki = > 4 µM
